- measurement-description: In vivo pharmacokinetic study
- Set-up: species or system mouse
- conditions: female, C57BL/6, mouse, plasma, ip, 5 mg/kg, T1/2, mice
measured-quantity: half-life (min)
Answers are plain numbers, in min.

Which half-life reading was recorded for the molecule CC(C)Nc1ccnc(Nc2cccc(-c3cccnc3)c2)n1 ?
32.4

----------
- measurement-description: In vivo pharmacokinetic study
- Design: species or system mouse
- conditions: female, C57BL/6, mouse, plasma, ip, 5 mg/kg, Cmax, mice
measured-quantity: Cmax
Form field: result (number plus unit)

Which Cmax reading was recorded for the compound CC(C)Nc1ccnc(Nc2cccc(-c3cccnc3)c2)n1 ?
927 nM

----------
Task for the reader: assign each of the following molecules its reported solubility at 18 h.
- measurement-description: Solubility
- Type: physicochemical
- conditions: buffer, pH 7.4, aqueous buffer, kinetic from dmso stock

Worked cases, answers included:
CC(C)Nc1ccnc(Nc2cccc(-c3cnccn3)c2)n1	56.9 µM
c1cncc(-c2cccc(Nc3nccc(NC4CCCCC4)n3)c2)c1	0.4 µM

Okay, now this molecule:
Which solubility at 18 h reading was recorded for the molecule CC(C)Nc1ccnc(Nc2cccc(-c3cccnc3)c2)n1 ?
26.4 µM
